- protocol details: Selectivity ratio of IC50 for African green monkey Vero cells to MIC for Mycobacterium tuberculosis H37Rv ATCC 27294
- Assay type: toxicity
- experimental setup: read-out: Selectivity Index
Recorded measurements of selectivity ratio, one per entry

CCCCc1nc(Cl)c(C2NC(=O)NC(C)=C2C(=O)Nc2ccccc2Cl)[nH]1 (stereo unspecified): 4.87
CCCCc1nc(Cl)c(C2NC(=O)NC(C)=C2C(=O)Nc2ccc([N+](=O)[O-])cc2)[nH]1 (stereo unspecified): > 12.8
NNC(=O)c1ccncc1: > 40000

IN: Look up and state reported selectivity ratio for CCCCc1nc(Cl)c(C2NC(=O)NC(C)=C2C(=O)Nc2ccccc2F)[nH]1 (stereo unspecified)
OUT: > 3.12

IN: // fetch selectivity ratio given entry CCCCc1nc(Cl)c(C2NC(=O)NC(C)=C2C(=O)Nc2ccc(F)cc2)[nH]1 (stereo unspecified)
OUT: > 25.6

IN: Name the recorded selectivity ratio of the molecule listed here: CCCCc1nc(Cl)c(C2NC(=O)NC(C)=C2C(=O)Nc2ccc(Cl)cc2)[nH]1 (stereo unspecified)
OUT: 24.1
